All figures here come from the supplement of paper PMC10567573.

B1: MLH1 (parent)
chain: YNIATRRKALKNPSEEYGKILEVV

- Variants of: B1
- Test protocol: protein stability index of a GFP-peptide fusion (GPS, HEK-293T) (PSI 1-6); higher = more stable;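 note: lentivirally expressed fusions sorted by FACS into six bins by GFP to DsRed ratio, PSI derived from sequencing read proportions per bin multiplied by bin number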
- Run parameters: c terminus: a fixed tail appended
Measurement name: protein stability index
Format: numeric value only, no unit, no commentary.

>  <Variant identifier>
R7P

>  <Measurement name>
protein stability index

>  <Reported result>
3.14

$$$$

INPUT: Which measured protein stability index value corresponds to T5W ?
OUTPUT: 1.83

INPUT: Same question, Y17C this time
OUTPUT: 3.05

INPUT: Further, for P13I ?
OUTPUT: 2.15

INPUT: Then what about the variant E16F ?
OUTPUT: 1.62

INPUT: Quick one: N12Y
OUTPUT: 2.53

INPUT: Follow-up item: P13H
OUTPUT: 2.94
